target of assay: T1, Human NKp46 Fc tag (Acro Biosystems, NC1-H5257) (human, UniProt O76036 22-255)
T1 construct: bought; also called Fc-tagged human NKp46
T1 sequence (O76036 22-255 limits assumed): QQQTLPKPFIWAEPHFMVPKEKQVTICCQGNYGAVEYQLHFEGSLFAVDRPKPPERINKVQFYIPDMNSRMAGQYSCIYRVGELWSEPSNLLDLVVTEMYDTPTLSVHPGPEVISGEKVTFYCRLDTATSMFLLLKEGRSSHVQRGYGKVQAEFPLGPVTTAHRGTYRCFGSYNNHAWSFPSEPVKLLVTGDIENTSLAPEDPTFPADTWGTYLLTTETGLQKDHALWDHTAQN
measurement protocol: SPR Method 1 and/or 2
Numbered stars: 1 amine (or outer) side, 2 acyl side, 3 side chain; on linkers, the order of the positions; unused ones are H or OH. Bridge positions count the residues as written; N and C are the ends. Square brackets hold non-standard residues; d marks the D form. Ends that are not written are not given here. TATA = O=C(CC[*:1])N1CN(C(=O)CC[*:2])CN(C(=O)CC[*:3])C1; Dopa = N[C@@H](Cc1ccc(O)c(O)c1)C(=O)O; 2Pal = N[C@@H](Cc1ccccn1)C(=O)O; Cba = N[C@@H](CC1CCC1)C(=O)O; dNva = CCC[C@@H](N)C(=O)O; NMeA = CN[C@@H](C)C(=O)O
Give Kd for every item shown.
The reply should be a number in nM, with the unit left off.

**Query** Please indicate Kd recorded for Ac-CY[Cba][NMeA]DYLC[dA]DEYC-NH2 (linker 1-8-13 via TATA; SMILES CC(=O)N[C@H]1CSCCC(=O)N2CN3CN(C2)C(=O)CCSC[C@H](NC(=O)[C@H](CC(C)C)NC(=O)[C@H](Cc2ccc(O)cc2)NC(=O)[C@H](CC(=O)O)NC(=O)[C@H](C)N(C)C(=O)[C@H](CC2CCC2)NC(=O)[C@H](Cc2ccc(O)cc2)NC1=O)C(=O)N[C@H](C)C(=O)N[C@@H](CC(=O)O)C(=O)N[C@@H](CCC(=O)O)C(=O)N[C@@H](Cc1ccc(O)cc1)C(=O)N[C@H](C(N)=O)CSCCC3=O, scaffold TATA) [BCY18440]
**Result** 149

**Query** Please indicate Kd recorded for ACDLTT[2Pal]NCQWGICA-NH2 (linker 2-9-14 via TATA; N-terminus assumed; SMILES CC[C@H](C)[C@@H]1NC(=O)CNC(=O)[C@H](Cc2c[nH]c3ccccc23)NC(=O)[C@H](CCC(N)=O)NC(=O)[C@@H]2CSCCC(=O)N3CN(CN(C3)C(=O)CCSC[C@@H](C(=O)N[C@@H](C)C(N)=O)NC1=O)C(=O)CCSC[C@H](NC(=O)[C@H](C)N)C(=O)N[C@@H](CC(=O)O)C(=O)N[C@@H](CC(C)C)C(=O)N[C@@H]([C@@H](C)O)C(=O)N[C@@H]([C@@H](C)O)C(=O)N[C@@H](Cc1ccccn1)C(=O)N[C@@H](CC(N)=O)C(=O)N2, scaffold TATA) [BCY18280]
**Result** 1270

**Query** Please indicate Kd recorded for Ac-CDLTTHNCQWGIC-NH2 (linker 1-8-13 via TATA, scaffold TATA) [BCY18260]
**Result** 1240

**Query** Please indicate Kd recorded for Ac-CY[Cba]PDYLC[dNva]DEYC-NH2 (linker 1-8-13 via TATA; SMILES CCC[C@H]1NC(=O)[C@@H]2CSCCC(=O)N3CN(CN(C3)C(=O)CCSC[C@H](NC(C)=O)C(=O)N[C@@H](Cc3ccc(O)cc3)C(=O)N[C@@H](CC3CCC3)C(=O)N3CCC[C@H]3C(=O)N[C@@H](CC(=O)O)C(=O)N[C@@H](Cc3ccc(O)cc3)C(=O)N[C@@H](CC(C)C)C(=O)N2)C(=O)CCSC[C@@H](C(N)=O)NC(=O)[C@H](Cc2ccc(O)cc2)NC(=O)[C@H](CCC(=O)O)NC(=O)[C@H](CC(=O)O)NC1=O, scaffold TATA) [BCY18444]
**Result** 3.9

**Query** Please indicate Kd recorded for Ac-CY[Cba]PD[Dopa]LC[dA]DEYC-NH2 (linker 1-8-13 via TATA; SMILES CC(=O)N[C@H]1CSCCC(=O)N2CN3CN(C2)C(=O)CCSC[C@H](NC(=O)[C@H](CC(C)C)NC(=O)[C@H](Cc2ccc(O)c(O)c2)NC(=O)[C@H](CC(=O)O)NC(=O)[C@@H]2CCCN2C(=O)[C@H](CC2CCC2)NC(=O)[C@H](Cc2ccc(O)cc2)NC1=O)C(=O)N[C@H](C)C(=O)N[C@@H](CC(=O)O)C(=O)N[C@@H](CCC(=O)O)C(=O)N[C@@H](Cc1ccc(O)cc1)C(=O)N[C@H](C(N)=O)CSCCC3=O, scaffold TATA) [BCY19686]
**Result** 44

Hello, the source for this data is patent US20240108738A1, in case you need it.
